# ASSAY EXPLANATION: Acute toxicities on mice (Table 7)
# ASSAY SETUP: mouse, in vivo, sc, route Subcutaneous, dihydrochlorides
RESULT TYPE: LD50

Notebook: CC=CC=CC(=O)NCC(O)CC(N)CC(=O)NCCC(=N)N (stereo not shown) [TAN-749A] , LD50 read as ~500 mg/kg

---

# ASSAY EXPLANATION: Acute toxicities on mice (Table 7)
# ASSAY SETUP: mouse, in vivo, route Oral, dihydrochlorides
RESULT TYPE: LD50

Notebook: CC=CC=CC(=O)NCC(O)CC(N)CC(=O)NCCC(=N)N (stereo not shown) [TAN-749A] , LD50 read as 2000 to 4000 mg/kg
